# testedTarget: Acetylcholinesterase (Homo sapiens)
# Sequence (P22303 whole entry): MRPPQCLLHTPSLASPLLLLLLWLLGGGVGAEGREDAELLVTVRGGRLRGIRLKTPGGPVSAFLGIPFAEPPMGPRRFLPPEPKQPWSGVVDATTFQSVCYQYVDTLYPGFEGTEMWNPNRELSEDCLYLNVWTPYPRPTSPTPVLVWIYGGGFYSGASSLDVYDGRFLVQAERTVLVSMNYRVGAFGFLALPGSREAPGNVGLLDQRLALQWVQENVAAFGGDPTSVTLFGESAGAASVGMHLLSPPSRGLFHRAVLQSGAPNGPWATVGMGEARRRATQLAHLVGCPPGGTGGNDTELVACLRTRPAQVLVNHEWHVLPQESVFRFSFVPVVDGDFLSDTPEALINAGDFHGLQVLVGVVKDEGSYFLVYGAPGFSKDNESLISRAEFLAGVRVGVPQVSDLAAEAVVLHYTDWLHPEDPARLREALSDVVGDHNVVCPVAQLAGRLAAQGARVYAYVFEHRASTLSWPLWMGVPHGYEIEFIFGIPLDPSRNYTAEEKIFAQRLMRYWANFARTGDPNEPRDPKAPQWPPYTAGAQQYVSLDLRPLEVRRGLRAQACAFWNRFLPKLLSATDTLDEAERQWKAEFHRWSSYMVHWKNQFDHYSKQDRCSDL
# assayName: Inhibition of human recombinant AChE
pIC50: −log10 of the molar value.
Please use y whenever pIC50 is not below 6, and n whenever it is.

Solved entries (count: 5):
>  <chemSmiles>
CCN(Cc1ccccc1)Cc1ccc(-c2cc3cc(OC)c(OC)cc3oc2=O)cc1

>  <labelValue>
y

$$$$
>  <chemSmiles>
COc1ccc2oc(=O)c(-c3cccc(CN(C)Cc4ccccc4)c3)cc2c1

>  <labelValue>
y

$$$$
>  <chemSmiles>
COc1ccc2oc(-c3ccc(CN(C)Cc4ccccc4)cc3)cc(=O)c2c1

>  <labelValue>
n

$$$$
>  <chemSmiles>
COc1cc2cc(-c3ccc(C[N+](C)(C)Cc4ccccc4)cc3)c(=O)oc2cc1OC

>  <labelValue>
y

$$$$
>  <chemSmiles>
COc1ccccc1CN(C)Cc1ccc(-c2cc3cc(OC)c(OC)cc3oc2=O)cc1

>  <labelValue>
y

$$$$

Exercise: I'd appreciate it if you could say whether `COc1cc2cc(-c3ccc(CN(CCO)Cc4ccccc4)cc3)c(=O)oc2cc1OC` has pIC50 at least equal to 6.
Solution: y

Exercise: I'd appreciate it if you could say whether `CN(Cc1ccccc1)Cc1ccc(-c2cc3cc([N+](=O)[O-])ccc3oc2=O)cc1` has pIC50 at least equal to 6.
Solution: y

Exercise: I'd appreciate it if you could say whether `COc1ccc2oc(=O)c(-c3ccc(CN(C)Cc4ccccc4)cc3)cc2c1` has pIC50 at least equal to 6.
Solution: y

Exercise: I'd appreciate it if you could say whether `COc1cc2cc(-c3ccc(CN(C)Cc4cccc(C)c4)cc3)c(=O)oc2cc1OC` has pIC50 at least equal to 6.
Solution: y

Exercise: I'd appreciate it if you could say whether `COc1cc2occ(-c3cccc(CN(C)Cc4ccccc4)c3)c(=O)c2cc1OC` has pIC50 at least equal to 6.
Solution: n

Exercise: I'd appreciate it if you could say whether `CCN(Cc1ccccc1)Cc1cccc(-c2coc3cc(OC)c(OC)cc3c2=O)c1` has pIC50 at least equal to 6.
Solution: n

Exercise: I'd appreciate it if you could say whether `COc1cc2cc(-c3cccc(CN(C)Cc4ccccc4)c3)c(=O)oc2cc1OC` has pIC50 at least equal to 6.
Solution: y
